Target: recombinant AcerOBP11 (Apis cerana, UniProt S5CRW7)
Sequence (S5CRW7 entry or part of it): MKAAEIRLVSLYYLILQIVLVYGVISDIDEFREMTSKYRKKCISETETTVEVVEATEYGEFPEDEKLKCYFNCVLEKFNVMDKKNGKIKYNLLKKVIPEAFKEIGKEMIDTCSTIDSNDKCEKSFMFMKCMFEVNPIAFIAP
Experiment: biochemical
Assay type: binding
Conditions: KD, calculated from IC50, KD = [IC50]/(1+[1-NPN]/K1-NPN); Table 1
Threshold-based label: Kd under 3 µM gives 1, Kd not under 3 µM gives -1.

Use these answered entries as a reference point.
COC(=O)c1ccc(O)cc1 [HOB, methyl p-hydroxybenzoate]
1
CCCCCCCCCCCCCCCC(=O)OCC [Ethyl palmitate]
-1
CC(=O)OCCC(C)C [Isoamyl acetate]
-1
C=CCc1ccc(OC)c(OC)c1
1

query: I wonder whether CC(C)=CCC/C(C)=C\CO has Kd below 3 µM. Can you tell?
result: -1

Recorded values, source paper PMC5924804.
